Species: Homo sapiens
Method Summary: Compound was evaluated for in vitro inhibition of leukotriene (LTB4) in human whole blood (HWB)
Format: functional
// values below are reported IC50
// units = nM; emit number, no label

The value of IC50 measured for the compound N#Cc1cc(-c2ccoc2)c2ccc(CSc3cc(F)cc(C4(O)CC5COC(C4)O5)c3)cc2n1 (stereo unspecified) turned out to be 193

IC50 in this record for N#Cc1cc2cc(OCc3cccc(C4(O)CC5COC(C4)O5)n3)ccc2c(-c2ccoc2)n1 (stereo unspecified) : 47

O=c1cc(-c2ccoc2)c2ccc(OCc3cccc(C4(O)CC5COC(C4)O5)n3)cc2n1Cc1ccccc1 (stereo unspecified) yielded IC50 of 160

Given item N#Cc1cc(-c2ccoc2)c2ccc(OCc3cccc(C4(O)CC5COC(C4)O5)c3)cc2n1 (stereo unspecified) , the value recorded as its IC50 is 287

Lab note: measured IC50 of N#Cc1cc(-c2ccoc2)c2ccc(OCc3cccc(C4(O)CC5COC(C4)O5)n3)cc2n1 (stereo unspecified) was 103

Reported IC50 of OC1(c2cccc(COc3ccc4c(-c5ccoc5)cncc4c3)n2)CC2COC(C1)O2 (stereo unspecified) : 90

====

We begin with a simple list: items and their reported pIC50.
Tested Target: Polyunsaturated fatty acid 5-lipoxygenase (Homo sapiens)
Sequence (P09917 whole entry): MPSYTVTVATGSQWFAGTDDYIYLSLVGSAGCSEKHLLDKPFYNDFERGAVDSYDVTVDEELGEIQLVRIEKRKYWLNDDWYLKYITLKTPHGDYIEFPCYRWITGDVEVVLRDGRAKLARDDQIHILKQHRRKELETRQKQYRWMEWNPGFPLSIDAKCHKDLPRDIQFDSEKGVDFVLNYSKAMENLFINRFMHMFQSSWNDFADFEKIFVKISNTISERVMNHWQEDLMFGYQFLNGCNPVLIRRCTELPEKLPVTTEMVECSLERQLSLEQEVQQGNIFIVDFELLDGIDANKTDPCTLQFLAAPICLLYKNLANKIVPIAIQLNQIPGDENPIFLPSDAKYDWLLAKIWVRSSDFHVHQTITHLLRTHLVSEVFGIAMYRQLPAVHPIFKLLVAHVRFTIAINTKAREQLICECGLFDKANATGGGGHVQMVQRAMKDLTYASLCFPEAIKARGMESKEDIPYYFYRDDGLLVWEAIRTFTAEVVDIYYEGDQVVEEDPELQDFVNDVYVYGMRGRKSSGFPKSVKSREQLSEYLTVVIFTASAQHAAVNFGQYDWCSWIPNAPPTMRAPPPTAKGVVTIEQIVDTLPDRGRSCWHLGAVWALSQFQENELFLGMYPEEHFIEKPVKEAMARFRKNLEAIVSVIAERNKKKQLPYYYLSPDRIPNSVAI
Method Summary: Compound was evaluated for in vitro inhibition of recombinant human 5-lipoxygenase (5-LO)
// pIC50 here means minus log10 of the molar concentration (mol/L)

Form: compound = N#Cc1cc2cc(OCc3cccc(C4(O)CC5COC(C4)O5)n3)ccc2c(-c2ccoc2)n1 (stereo unspecified) ; pIC50 = 5.71

In plain terms, N#Cc1cc(-c2ccoc2)c2ccc(OCc3cccc(C4(O)CC5COC(C4)O5)n3)cc2n1 (stereo unspecified) has a documented pIC50 of 7.44

Lookup result for N#Cc1cc(-c2ccoc2)c2ccc(CSc3cc(F)cc(C4(O)CC5COC(C4)O5)c3)cc2n1 (stereo unspecified) ; measured pIC50: 6.91

Item: OC1(c2cccc(COc3ccc4c(-c5ccoc5)cncc4c3)n2)CC2COC(C1)O2 (stereo unspecified) | pIC50: 5.84

Given item O=c1cc(-c2ccoc2)c2ccc(OCc3cccc(C4(O)CC5COC(C4)O5)n3)cc2n1Cc1ccccc1 (stereo unspecified) , the value recorded as its pIC50 is 6.99

====

The entries below are paired with their reported log10 IC50.
Method Summary: Compound was evaluated for in vitro inhibition of leukotriene (LTB4) in human peripheral blood polymorphonuclear leukocytes (HPMN)
Format: functional
A difference of one corresponds to tenfold IC50; all values are log10 with IC50 in nM.

Memo: N#Cc1cc(-c2ccoc2)c2ccc(OCc3cccc(C4(O)CC5COC(C4)O5)c3)cc2n1 (configuration not stated) , reported log10 IC50: 1.00

====

Method Summary: Compound was evaluated for in vitro inhibition of leukotriene (LTB4) in human peripheral blood polymorphonuclear leukocytes (HPMN)
Assay type: functional
Reported Property: pIC50
In textbook form, pIC50 equals minus log to base ten of the concentration in mol/L.

Below, 5 molecules whose answers are already recorded.
>>> numeric_readout("OC1(c2cccc(COc3ccc4c(-c5ccoc5)cncc4c3)n2)CC2COC(C1)O2 (stereo unspecified)")
7.99
>>> numeric_readout("N#Cc1cc(-c2ccoc2)c2ccc(OCc3cccc(C4(O)CC5COC(C4)O5)n3)cc2c1 (stereo unspecified)")
8.80
>>> numeric_readout("N#Cc1cc(-c2ccoc2)c2ccc(OCc3cccc(C4(O)CC5COC(C4)O5)n3)cc2n1 (stereo unspecified)")
8.40
>>> numeric_readout("N#Cc1cc2cc(OCc3cccc(C4(O)CC5COC(C4)O5)n3)ccc2c(-c2ccoc2)n1 (stereo unspecified)")
7.74
>>> numeric_readout("O=c1cc(-c2ccoc2)c2ccc(OCc3cccc(C4(O)CC5COC(C4)O5)n3)cc2n1Cc1ccccc1 (stereo unspecified)")
8.24

In the following, a different molecule is considered.
The reported value for N#Cc1cc(-c2ccoc2)c2ccc(CSc3cc(F)cc(C4(O)CC5COC(C4)O5)c3)cc2n1 (stereo unspecified) in terms of pIC50 is 8.22
